Value source: patent US9170257B2

Test: Tissue distribution of curcumin and THC at necropsy 15 minutes post-infusion
Parameters: species or system Beagle dogs
Conditions: both sexes, beagle, dog, in vivo, 10 mg/kg, 2 hr infusion; H3PO4 stabilized; read-out: Kp [tissue]/[plasma], Lungs

| compound | Kp at 2 h |
| --- | --- |
| COc1cc(CCC(=O)CC(=O)CCc2ccc(O)c(OC)c2)ccc1O [THC, tetrahydrocurcumin] | 0.0078 |

---

Test: Tissue distribution of curcumin and THC at necropsy 15 minutes post-infusion
Set-up: species or system Beagle dogs
Conditions: both sexes, beagle, dog, in vivo, 10 mg/kg, 8 hour infusion; No H3PO4; read-out: Tissue level, Heart

| compound | concentration at 15 min [ng/g] |
| --- | --- |
| COc1cc(CCC(=O)CC(=O)CCc2ccc(O)c(OC)c2)ccc1O [THC, tetrahydrocurcumin] | 0.51 |

---

Assay: Plasma, urine and bile levels of curcumin and THC 15 minutes post-infusion
Type: in vivo, Beagle dogs
Conditions: both sexes, Beagle, dog, in vivo, 10 mg/kg, 15 min after 2 hour infusion; no H3PO4; mean±SE; read-out: Bile level
Description: The results and analysis for the study are presented for intravenous infusion dosing of a total dose of 10 mg/kg infused over a period of either 2 or 8 hours. Plasma levels of curcumin and its metabolite, THC were measured at timed intervals post-dosing. Bioanalysis was performed on two sets of samples, one set that was treated with phosphoric acid and one set that was not treated with phosphoric acid. […] Values that were below the limit of quantification were assigned a value of 0. […]

| compound | units | concentration at 15 min |
| --- | --- | --- |
| COc1cc(CCC(=O)CC(=O)CCc2ccc(O)c(OC)c2)ccc1O [THC, tetrahydrocurcumin] | ng/mL | 187 |

---

Test: Tissue distribution of curcumin and THC at necropsy 15 minutes post-infusion
Design: species or system Beagle dogs
Conditions: both sexes, beagle, dog, in vivo, 10 mg/kg, Table 15, 2 hour infusion; −H3PO4; read-out: Tissue analysis, Striatum
Method: The test article will be administered to 8 Beagle dogs by intravenous infusion over two hours (Part A) or eight hours (Part B) as shown in Table 6. Multiple samples of tissue weighing approximately 1 gram were removed and snap frozen in the presence or absence of phosphoric acid (H3PO4). For all tissue samples, the levels of curcumin and THC were determined using a method developed by the Bioanalytical Department at Nucro-Technics. […]

| compound | units | concentration at 15 min |
| --- | --- | --- |
| COc1cc(CCC(=O)CC(=O)CCc2ccc(O)c(OC)c2)ccc1O [THC, tetrahydrocurcumin] | ng/g | 1.12 |

---

Assay: Tissue distribution of curcumin and THC at necropsy 15 minutes post-infusion
Set-up: species or system Beagle dogs
Details: both sexes, beagle, dog, in vivo, 10 mg/kg, Table 14, 2 hour infusion; +H3PO4; read-out: Tissue analysis, Pancreas
Protocol: The test article will be administered to 8 Beagle dogs by intravenous infusion over two hours (Part A) or eight hours (Part B) as shown in Table 6. Multiple samples of tissue weighing approximately 1 gram were removed and snap frozen in the presence or absence of phosphoric acid (H3PO4). For all tissue samples, the levels of curcumin and THC were determined using a method developed by the Bioanalytical Department at Nucro-Technics. […]
reported.property: concentration at 15 min

| compound | reported.property | value |
| --- | --- | --- |
| COc1cc(CCC(=O)CC(=O)CCc2ccc(O)c(OC)c2)ccc1O [THC, tetrahydrocurcumin] | concentration at 15 min | 0.91 ng/g |

---

Experiment: in vivo
Set-up: species or system Beagle dogs
Conditions: both sexes, beagle, dog, in vivo, Kp [tissue]/[plasma], Pancreas

| compound | Kp at 8 h |
| --- | --- |
| COc1cc(/C=C/C(=O)CC(=O)/C=C/c2ccc(O)c(OC)c2)ccc1O [Curcumin, reference compound] | 0.191 |

---

Experiment: Tissue distribution of curcumin and THC at necropsy 15 minutes post-infusion
Set-up: species or system Beagle dogs
Settings: both sexes, beagle, dog, in vivo, 10 mg/kg, 2 hour infusion; No H3PO4; read-out: Tissue level, Striatum

| compound | concentration at 15 min, ng/g |
| --- | --- |
| COc1cc(CCC(=O)CC(=O)CCc2ccc(O)c(OC)c2)ccc1O [THC, tetrahydrocurcumin] | 6.22 |

---

Assay: Tissue distribution of curcumin and THC at necropsy 15 minutes post-infusion
Parameters: species or system Beagle dogs
Settings: both sexes, beagle, dog, in vivo, 10 mg/kg, Eight hour infusion; H3PO4 stabilized; read-out: Average tissue concentration, Cortex
Procedure: The test article will be administered to 8 Beagle dogs by intravenous infusion over two hours (Part A) or eight hours (Part B) as shown in Table 6. Multiple samples of tissue weighing approximately 1 gram were removed and snap frozen in the presence or absence of phosphoric acid (H3PO4). For all tissue samples, the levels of curcumin and THC were determined using a method developed by the Bioanalytical Department at Nucro-Technics. […]

| compound | units | concentration at 15 min |
| --- | --- | --- |
| COc1cc(CCC(=O)CC(=O)CCc2ccc(O)c(OC)c2)ccc1O [THC, tetrahydrocurcumin] | ng/g | 0.49 |

---

Assay: Plasma, urine and bile levels of curcumin and THC 15 minutes post-infusion
Type: in vivo, Beagle dogs
Settings: both sexes, Beagle, dog, in vivo, 10 mg/kg, 15 min after 2 hour infusion; + H3PO4; mean±SE; read-out: Bile level

| compound | units | concentration at 15 min |
| --- | --- | --- |
| COc1cc(CCC(=O)CC(=O)CCc2ccc(O)c(OC)c2)ccc1O [THC, tetrahydrocurcumin] | ng/mL | 391 |

---

Assay: Tissue distribution of curcumin and THC at necropsy 15 minutes post-infusion
Set-up: species or system Beagle dogs
Settings: both sexes, beagle, dog, in vivo, 10 mg/kg, 8 hr infusion; H3PO4 stabilized; read-out: Kp [tissue]/[plasma], Kidney
reported.property: Kp at 8 h

| compound | value |
| --- | --- |
| COc1cc(CCC(=O)CC(=O)CCc2ccc(O)c(OC)c2)ccc1O [THC, tetrahydrocurcumin] | 0.0195 |

---

Experiment: Tissue distribution of curcumin and THC at necropsy 15 minutes post-infusion
Parameters: species or system Beagle dogs
Details: both sexes, beagle, dog, in vivo, 10 mg/kg, 2 hour infusion; Plus H3PO4; read-out: Tissue level, Heart
Method: The test article will be administered to 8 Beagle dogs by intravenous infusion over two hours (Part A) or eight hours (Part B) as shown in Table 6. Multiple samples of tissue weighing approximately 1 gram were removed and snap frozen in the presence or absence of phosphoric acid (H3PO4). For all tissue samples, the levels of curcumin and THC were determined using a method developed by the Bioanalytical Department at Nucro-Technics. […]

| compound | units | concentration at 15 min |
| --- | --- | --- |
| COc1cc(CCC(=O)CC(=O)CCc2ccc(O)c(OC)c2)ccc1O [THC, tetrahydrocurcumin] | ng/g | 0.69 |

---

Experiment: Tissue distribution of curcumin and THC at necropsy 15 minutes post-infusion
Set-up: species or system Beagle dogs
Details: both sexes, beagle, dog, in vivo, 10 mg/kg, 8 hour infusion; No H3PO4; read-out: Tissue level, Striatum
reported.property: concentration at 15 min (ng/g)

| compound | reported.property | value |
| --- | --- | --- |
| COc1cc(CCC(=O)CC(=O)CCc2ccc(O)c(OC)c2)ccc1O [THC, tetrahydrocurcumin] | concentration at 15 min | 1.12 |

---

Assay: Tissue distribution of curcumin and THC at necropsy 15 minutes post-infusion
Set-up: species or system Beagle dogs
Details: both sexes, beagle, dog, in vivo, 10 mg/kg, Eight hour infusion; H3PO4 stabilized; read-out: Average tissue concentration, Striatum

| compound | units | concentration at 15 min |
| --- | --- | --- |
| COc1cc(CCC(=O)CC(=O)CCc2ccc(O)c(OC)c2)ccc1O [THC, tetrahydrocurcumin] | ng/g | 3.13 |

---

Assay: Plasma pharmacokinetics of curcumin and THC during and after intravenous infusion of liposomal curcumin
Type: in vivo, Beagle dogs
Conditions: both sexes, beagle, dog, in vivo, iv, 10 mg/kg, 2 hr infusion + phosphate; observed; read-out: Cmax

| compound | Cmax |
| --- | --- |
| COc1cc(CCC(=O)CC(=O)CCc2ccc(O)c(OC)c2)ccc1O [THC, tetrahydrocurcumin] | 2980 ng/mL |

---

Test: in vivo
Parameters: species or system Beagle dogs
Settings: both sexes, beagle, dog, in vivo, Kp [tissue]/[plasma], Pancreas

| compound | Kp at 2 h |
| --- | --- |
| COc1cc(/C=C/C(=O)CC(=O)/C=C/c2ccc(O)c(OC)c2)ccc1O [Curcumin, reference compound] | 0.0166 |

---

Experiment: Plasma pharmacokinetics of curcumin and THC during and after intravenous infusion of liposomal curcumin
Assay type: in vivo, Beagle dogs
Settings: both sexes, Beagle, dog, in vivo, iv, 10 mg/kg, 8 hr infusion; plasma without phosphoric acid; observed; read-out: Cmax
reported.property: Cmax (ng/mL)

| molecule | units | value |
| --- | --- | --- |
| COc1cc(CCC(=O)CC(=O)CCc2ccc(O)c(OC)c2)ccc1O [THC, tetrahydrocurcumin] | ng/mL | 77 |
